Where do the numbers come from? From patent US6589970B2.

// values below are reported melting point

Entry CN(Cc1ccc2c(Br)c(OCc3nnn[nH]3)ccc2c1)C(=O)c1cn(C)c2ccccc12 [Example 37] has what melting point?
227 to 228 °C

Can you handle CCCCc1oc2ccccc2c1C(=O)NCc1ccc2c(-c3ccc(C(C)(C)C)cc3)c(OCc3nnn[nH]3)ccc2c1 [Example 27] next?
75 to 78 °C

Can you handle CN(Cc1ccc2c(Br)c(OCC(=O)O)ccc2c1)C(=O)c1oc2ccccc2c1CCc1ccccc1 [Example 47] next?
119 to 122 °C

Can you handle CCCc1c(C(=O)NCc2ccc3c(Br)c(OCc4nnn[nH]4)ccc3c2)cnn1-c1ccccc1 [Example 22] next?
219 to 220 °C

* * *

Biological target: recombinant human plasminogen activator inhibitor-1 (PAI-1) (Homo sapiens)
Construct: purchased Molecular Innovations, Royal Oak, Mich
Sequence (P05121 24-402): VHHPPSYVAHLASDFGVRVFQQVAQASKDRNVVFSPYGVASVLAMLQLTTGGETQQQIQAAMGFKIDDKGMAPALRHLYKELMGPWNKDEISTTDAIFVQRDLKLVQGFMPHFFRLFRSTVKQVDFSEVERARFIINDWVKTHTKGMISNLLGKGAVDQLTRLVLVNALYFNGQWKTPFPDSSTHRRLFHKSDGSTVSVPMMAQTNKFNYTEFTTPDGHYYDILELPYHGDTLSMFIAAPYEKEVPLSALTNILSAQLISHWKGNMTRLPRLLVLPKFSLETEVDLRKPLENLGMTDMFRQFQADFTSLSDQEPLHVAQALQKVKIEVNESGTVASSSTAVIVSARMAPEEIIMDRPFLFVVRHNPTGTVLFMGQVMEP
Assay: Primary Screen for the PAI-1 Inhibition
Assay type: biochemical
Details: 100 μM test compound; read-out: % Inhib. 100 μM
Protocol: Test compounds are dissolved in DMSO at a final concentration of 10 mM, then diluted 100× in physiologic buffer. […] Following the second incubation, Spectrozyme-tPA (American Diagnostica, Greenwich, Conn.), a chromogenic substrate for tPA, is added and absorbance read at 405 nm at 0 and 60 minutes. […]
Where a name gives a salt, the structure may show the parent alone.
Result Type: inhibition at 100 µM (%)

molecule="CCCCc1oc2ccccc2c1C(=O)Nc1ccc2c(Br)c(OCC(=O)O)ccc2c1 [Example 6, sodium salt]" result_type="inhibition at 100 µM" numeric_value=67
molecule=CCCCc1oc2ccccc2c1C(=O)N(Cc1ccccc1)Cc1ccc2c(Br)c(OCc3nnn[nH]3)ccc2c1 result_type="inhibition at 100 µM" numeric_value=85
molecule="CCCCc1oc2ccccc2c1C(=O)NCc1ccc2c(-c3ccc(OC)cc3)c(OC(Cc3ccccc3)C(=O)[O-])ccc2c1.[Na+] (stereo not drawn)" result_type="inhibition at 100 µM" numeric_value=91
